test system: HepG2; test: Antiproliferative activity against human HepG2 cells after 48 hrs by MTT assay; format: functional, cell-based; details: HepG2, 48 h
Provide the recorded IC50 for the entries that follow.

Here are 4 compounds together with their reported answers.
[[record]]
compound = "N#CC1=C(N)Oc2c(c3nc4ccccc4nc3c3ccccc23)C12C(=O)N(Cc1cnnn1-c1ccc(N)cc1)c1ccccc12 (stereo not given)"
result = "> 50 µM"

[[record]]
compound = "N#CC1=C(N)Oc2c(N)cc3nc4ccccc4nc3c2C12C(=O)N(Cc1cnnn1-c1ccc([N+](=O)[O-])cc1)c1ccccc12 (stereo not given)"
result = "> 50 µM"

[[record]]
compound = "N#CC1=C(N)Oc2c(c3nc4ccccc4nc3c3ccccc23)C12C(=O)N(Cc1cnnn1-c1ccccc1Cl)c1ccccc12 (stereo not given)"
result = "> 50 µM"

[[record]]
compound = "N#CC1=C(N)Oc2c(c3nc4ccccc4nc3c3ccccc23)C12C(=O)N(Cc1cnnn1-c1cc(Cl)ccc1Cl)c1ccccc12 (stereo not given)"
result = "> 50 µM"


Turning to the following compound.
*Q* Could you share which IC50 value was measured for COc1cc(-n2nncc2CN2C(=O)C3(C(C#N)=C(N)Oc4c(N)cc5nc6ccccc6nc5c43)c3ccccc32)c(OC)cc1Cl (stereo not given) ?
*A* > 50 µM
